Collected residual activity values appear next to each entry.
Target: STK38 (human) (UniProt Q15208)
Sequence (Q15208 whole entry, looked up): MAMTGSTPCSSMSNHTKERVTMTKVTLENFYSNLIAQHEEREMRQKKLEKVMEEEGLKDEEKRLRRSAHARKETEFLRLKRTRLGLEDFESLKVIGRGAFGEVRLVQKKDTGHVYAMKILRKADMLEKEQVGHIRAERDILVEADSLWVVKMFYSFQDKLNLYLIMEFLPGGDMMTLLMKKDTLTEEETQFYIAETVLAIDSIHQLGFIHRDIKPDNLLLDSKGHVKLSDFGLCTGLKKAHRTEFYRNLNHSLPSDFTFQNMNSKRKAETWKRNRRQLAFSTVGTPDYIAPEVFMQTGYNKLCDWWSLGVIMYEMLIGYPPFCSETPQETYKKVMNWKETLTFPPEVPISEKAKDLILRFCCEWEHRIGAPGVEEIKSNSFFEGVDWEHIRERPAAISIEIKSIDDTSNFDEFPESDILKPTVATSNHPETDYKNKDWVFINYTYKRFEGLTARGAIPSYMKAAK
Assay: radiometric filter-binding kinase assay, Kinase HotSpot
Conditions: compound 0.5 µM; ATP 10 µM
Provide the reading as a plain figure in %.

Entry under review: "O=c1c(-c2ccc(F)cc2)c(-c2ccncc2)[nH]n1-c1ccc(Cl)cc1" . Reported residual activity?
93.7

Again, but for "CN[C@@H]1C[C@H]2O[C@@](C)([C@@H]1OC)n1c3ccccc3c3c4c(c5c6ccccc6n2c5c31)C(=O)NC4"
10

Request: "COc1cc2c(cc1OC)-c1[nH]nc(Nc3cccc(F)c3)c1C2"
113

Continuing:
Consider the compound "N#Cc1c(NC(=O)c2cccc3ccccc23)sc2c1CCCC2" and give its measured residual activity.
97.7

Another compound to check: "CCc1nc(-c2ccc(OC)cc2)[nH]c1-c1ccncc1"
102

###

Target: UniProt Q6XUX3
Sequence (Q6XUX3 whole entry, looked up): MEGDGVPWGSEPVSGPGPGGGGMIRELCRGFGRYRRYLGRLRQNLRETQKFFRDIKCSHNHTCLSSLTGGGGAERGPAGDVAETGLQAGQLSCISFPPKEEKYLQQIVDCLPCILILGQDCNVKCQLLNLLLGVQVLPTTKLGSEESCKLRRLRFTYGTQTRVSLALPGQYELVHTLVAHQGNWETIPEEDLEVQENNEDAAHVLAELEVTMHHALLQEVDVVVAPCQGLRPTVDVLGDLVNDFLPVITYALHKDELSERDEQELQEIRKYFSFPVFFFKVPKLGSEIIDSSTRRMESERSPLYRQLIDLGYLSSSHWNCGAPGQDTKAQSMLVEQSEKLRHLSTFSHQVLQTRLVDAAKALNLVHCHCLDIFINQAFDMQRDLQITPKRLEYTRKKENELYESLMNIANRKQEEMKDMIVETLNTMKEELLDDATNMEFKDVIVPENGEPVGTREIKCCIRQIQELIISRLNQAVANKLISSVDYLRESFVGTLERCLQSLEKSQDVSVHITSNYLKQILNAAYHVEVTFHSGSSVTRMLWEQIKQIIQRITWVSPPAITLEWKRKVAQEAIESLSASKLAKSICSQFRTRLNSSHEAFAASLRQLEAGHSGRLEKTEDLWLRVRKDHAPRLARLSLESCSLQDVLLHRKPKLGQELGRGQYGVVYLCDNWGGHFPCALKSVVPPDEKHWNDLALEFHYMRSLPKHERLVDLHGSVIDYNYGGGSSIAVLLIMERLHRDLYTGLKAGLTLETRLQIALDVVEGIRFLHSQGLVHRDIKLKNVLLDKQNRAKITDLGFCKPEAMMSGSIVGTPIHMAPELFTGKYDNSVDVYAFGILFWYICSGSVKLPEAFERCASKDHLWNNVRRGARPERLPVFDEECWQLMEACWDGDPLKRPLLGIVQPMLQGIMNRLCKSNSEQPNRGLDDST
Experiment: radiometric filter-binding kinase assay, Kinase HotSpot
Details: compound 0.5 µM; ATP 10 µM
The label Y is reserved for residual activity strictly under 90%; N covers values equal to or above it.

Item "O=c1[nH]c2ccccc2n1C1CCN(Cc2ccc(-c3nc4cc5[nH]cnc5cc4nc3-c3ccccc3)cc2)CC1" : residual activity beneath 90%, strictly?
N

Entry "COc1cc2c(Nc3ccc(Br)cc3F)ncnc2cc1OCC1CCN(C)CC1" please
N

Next up: "Nc1ncnc2c1cnn2-c1ccccc1"
N

Others:
Lab log: compare recorded residual activity with 90%; is it strictly lower for "CCc1nc(-c2ccc(OC)cc2)[nH]c1-c1ccncc1" ?
N

Cool, now "O=c1c2ccccc2[nH]c(=S)n1CCN1CCC(=C(c2ccc(F)cc2)c2ccc(F)cc2)CC1"
Y

Same again, this time with "O=C(c1ccccc1)c1ccc(N2CCOCC2)cc1O"
Y

###

Molecular target: RPS6KA1 KD1 KD2 (human)
Assay: radiometric filter-binding kinase assay, Kinase HotSpot
Conditions: compound 0.5 µM; ATP 10 µM
metric.name: residual activity

Answered examples (6):
Reported residual activity, molecule "CCOc1cc2ncnc(Nc3cccc(Br)c3)c2cc1OCC" : ____
82.8%

One more molecule: "N/C(=N\N=C/c1ccc(-c2cccc([N+](=O)[O-])c2)o1)N[N+](=O)[O-]"
86.3%

Try "O=c1c(-c2ccc(F)cc2)c(-c2ccncc2)[nH]n1-c1ccc(Cl)cc1" next.
103%

Again, but for "COc1cc2ncnc(Nc3ccc(O)c(Br)c3)c2cc1OC"
78.2%

Repeat for the following molecule: "O=c1c2ccccc2[nH]c(=S)n1CCN1CCC(=C(c2ccc(F)cc2)c2ccc(F)cc2)CC1"
97.9%

What would you report for "N#Cc1c(NC(=O)c2cccc3ccccc23)sc2c1CCCC2" ?
86.1%

***
Quick one: residual activity of "N#CCCc1ccc2c(c1)-c1[nH]c3ccc([N+](=O)[O-])cc3c1CC(=O)N2" ?
59.9%

Same read-out for "O=C(O)c1ccc2c3c1cccc3c(=O)n1c3ccccc3nc21" ?
101%

Can you handle "O=c1cc(N2CCOCC2)oc2c(-c3ccccc3)cccc12" next?
97.3%

Can you check "O=S(=O)(NCCNC/C=C/c1ccc(Br)cc1)c1cccc2cnccc12" next?
68.4%

###

Measured residual activity values are reported for all entries that follow.
Biological target: NUAK1 (human)
Assay: radiometric filter-binding kinase assay, Kinase HotSpot
Conditions: compound 0.5 µM; ATP 10 µM
The answer is to be given in %; state only the numeric part.

Example results:
Dear colleague, I am looking for the recorded residual activity of the following molecule: "COc1cc2c(Nc3ccc(Br)cc3F)ncnc2cc1OCC1CCN(C)CC1"
92.7

Then "O=C1NC(=O)c2cc(Nc3ccc(F)cc3)c(Nc3ccc(F)cc3)cc21" ?
94

How about "CCc1nc(-c2ccc(OC)cc2)[nH]c1-c1ccncc1" ?
92.8

Input "N#Cc1c(NC(=O)c2cccc3ccccc23)sc2c1CCCC2"
97.3

Next: "Nc1ncnc2c1cnn2-c1ccccc1"
93.2

New cases:
Query: residual activity; subject: "O=c1cc(N2CCOCC2)oc2c(-c3ccccc3)cccc12"
92.5

Then this molecule: "O=C(c1ccccc1)c1ccc(N2CCOCC2)cc1O"
94.9

Then this molecule: "COc1cc2ncnc(Nc3ccc(O)c(Br)c3)c2cc1OC"
68.2

What about this molecule? "O=C(O)c1ccc2c3c1cccc3c(=O)n1c3ccccc3nc21"
41.3

Now the same for "FC(F)(F)c1ccc(/C=C/c2nc(COc3ccc(CCCCn4ccnn4)cc3)co2)cc1"
103

Next record, please: "COc1cc2c(N3CCN(C(=O)Nc4ccc(OC(C)C)cc4)CC3)ncnc2cc1OCCCN1CCCCC1"
104

Now give it for "CCCCc1c(-c2ccc(O)cc2)[nH]c2nccnc12" too.
19.1

Do the same for "c1ccc(-c2cnc(Nc3ccc(OCCN4CCCC4)cc3)s2)cc1" please
56.4

Please do the same for "O=c1c2ccccc2[nH]c(=S)n1CCN1CCC(=C(c2ccc(F)cc2)c2ccc(F)cc2)CC1" as well.
102

Next record, please: "N/C(=N\N=C/c1ccc(-c2cccc([N+](=O)[O-])c2)o1)N[N+](=O)[O-]"
96.4

Also need "COc1cc2c(cc1OC)-c1[nH]nc(Nc3cccc(F)c3)c1C2" , thanks.
88.5

Next molecule: "O=S(=O)(NCCNC/C=C/c1ccc(Br)cc1)c1cccc2cnccc12"
32.8

Can you check "Cc1cc(Nc2nc(-c3ccccc3)nc3ccccc23)n[nH]1" next?
3.88

And then "Cn1cc(/C=C2\C(=O)Nc3ccc(S(N)(=O)=O)cc32)c2ccccc21" , what is it?
5.88

###

Biological target: MAPKAPK2 (human) (UniProt P49137)
Sequence (P49137 whole entry, looked up): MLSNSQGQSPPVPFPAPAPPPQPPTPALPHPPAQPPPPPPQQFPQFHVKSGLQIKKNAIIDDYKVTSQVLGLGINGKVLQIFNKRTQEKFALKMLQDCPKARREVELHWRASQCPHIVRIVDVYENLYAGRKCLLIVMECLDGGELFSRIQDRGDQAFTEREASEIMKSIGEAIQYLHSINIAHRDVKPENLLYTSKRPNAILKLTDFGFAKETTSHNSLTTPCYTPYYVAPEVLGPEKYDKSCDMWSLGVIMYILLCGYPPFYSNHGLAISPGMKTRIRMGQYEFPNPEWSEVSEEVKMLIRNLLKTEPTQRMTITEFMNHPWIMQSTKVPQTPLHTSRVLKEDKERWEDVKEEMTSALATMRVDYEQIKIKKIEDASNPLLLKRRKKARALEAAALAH
Experiment: radiometric filter-binding kinase assay, Kinase HotSpot
Conditions: compound 0.5 µM; ATP 10 µM
// reported residual activity for each item listed
Include the unit right after the number.

Known results for compounds:
Recorded residual activity for "Nc1ncnc2c1cnn2-c1ccccc1" with MAPKAPK2 (human) (UniProt P49137), please?
98.6%

Note, next up: "N#Cc1c(NC(=O)c2cccc3ccccc23)sc2c1CCCC2"
103%

Check "O=c1cc(N2CCOCC2)oc2c(-c3ccccc3)cccc12" too.
103%

// same read-out, input: "O=C(c1ccccc1)c1ccc(N2CCOCC2)cc1O"
102%

Next entry: "O=C1NC(=O)c2cc(Nc3ccc(F)cc3)c(Nc3ccc(F)cc3)cc21"
95.7%

// moving on: another record for residual activity
Tell me reported residual activity for "Cn1cc(/C=C2\C(=O)Nc3ccc(S(N)(=O)=O)cc32)c2ccccc21" , tested with MAPKAPK2 (human) (UniProt P49137).
101%

###

Target: UniProt:Q96L34
Sequence (Q96L34 whole entry, looked up): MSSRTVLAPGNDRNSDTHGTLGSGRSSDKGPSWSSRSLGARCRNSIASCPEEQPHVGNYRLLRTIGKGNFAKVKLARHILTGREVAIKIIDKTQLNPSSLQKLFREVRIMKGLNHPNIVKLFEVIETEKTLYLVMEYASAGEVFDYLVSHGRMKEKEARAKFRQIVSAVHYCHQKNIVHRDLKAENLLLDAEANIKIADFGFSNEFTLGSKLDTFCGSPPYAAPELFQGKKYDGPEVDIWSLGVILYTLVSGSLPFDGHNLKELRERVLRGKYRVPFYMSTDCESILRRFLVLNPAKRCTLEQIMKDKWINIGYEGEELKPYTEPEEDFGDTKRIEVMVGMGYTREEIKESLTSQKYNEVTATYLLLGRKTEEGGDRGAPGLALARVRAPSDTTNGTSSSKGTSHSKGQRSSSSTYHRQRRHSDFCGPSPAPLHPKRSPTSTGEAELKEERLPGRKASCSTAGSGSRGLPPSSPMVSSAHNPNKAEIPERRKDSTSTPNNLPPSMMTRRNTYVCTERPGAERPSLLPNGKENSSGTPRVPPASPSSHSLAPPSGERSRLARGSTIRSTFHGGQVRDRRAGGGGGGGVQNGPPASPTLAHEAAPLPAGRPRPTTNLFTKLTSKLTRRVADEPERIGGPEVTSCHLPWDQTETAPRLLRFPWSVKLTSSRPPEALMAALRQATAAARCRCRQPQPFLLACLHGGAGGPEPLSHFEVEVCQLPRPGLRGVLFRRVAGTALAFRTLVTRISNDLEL
Assay: radiometric filter-binding kinase assay, Kinase HotSpot
Conditions: compound 0.5 µM; ATP 10 µM
metric.name: residual activity (%)
Numbers only here, please. The scale is %.

Here's what some known entries look like.
Query: residual activity; subject: "O=S(=O)(NCCNC/C=C/c1ccc(Br)cc1)c1cccc2cnccc12"
94.3

Let us now turn to "c1ccc(-c2cnc(Nc3ccc(OCCN4CCCC4)cc3)s2)cc1"
58.9

Thanks! And "COc1cc2c(cc1OC)-c1[nH]nc(Nc3cccc(F)c3)c1C2" ?
70.6

How about "COc1cccc(-c2cc(=O)c3ccccc3o2)c1N" ?
77.8

// query: "CCCCc1c(-c2ccc(O)cc2)[nH]c2nccnc12"
84.6

Follow-up item: "N#Cc1c(NC(=O)c2cccc3ccccc23)sc2c1CCCC2"
101

# context switch: different compound, same residual activity
Form field: reported residual activity of "Cc1cc(Nc2nc(-c3ccccc3)nc3ccccc23)n[nH]1"
83.5

###

Target: UniProt:P29376
Sequence (P29376 whole entry, looked up): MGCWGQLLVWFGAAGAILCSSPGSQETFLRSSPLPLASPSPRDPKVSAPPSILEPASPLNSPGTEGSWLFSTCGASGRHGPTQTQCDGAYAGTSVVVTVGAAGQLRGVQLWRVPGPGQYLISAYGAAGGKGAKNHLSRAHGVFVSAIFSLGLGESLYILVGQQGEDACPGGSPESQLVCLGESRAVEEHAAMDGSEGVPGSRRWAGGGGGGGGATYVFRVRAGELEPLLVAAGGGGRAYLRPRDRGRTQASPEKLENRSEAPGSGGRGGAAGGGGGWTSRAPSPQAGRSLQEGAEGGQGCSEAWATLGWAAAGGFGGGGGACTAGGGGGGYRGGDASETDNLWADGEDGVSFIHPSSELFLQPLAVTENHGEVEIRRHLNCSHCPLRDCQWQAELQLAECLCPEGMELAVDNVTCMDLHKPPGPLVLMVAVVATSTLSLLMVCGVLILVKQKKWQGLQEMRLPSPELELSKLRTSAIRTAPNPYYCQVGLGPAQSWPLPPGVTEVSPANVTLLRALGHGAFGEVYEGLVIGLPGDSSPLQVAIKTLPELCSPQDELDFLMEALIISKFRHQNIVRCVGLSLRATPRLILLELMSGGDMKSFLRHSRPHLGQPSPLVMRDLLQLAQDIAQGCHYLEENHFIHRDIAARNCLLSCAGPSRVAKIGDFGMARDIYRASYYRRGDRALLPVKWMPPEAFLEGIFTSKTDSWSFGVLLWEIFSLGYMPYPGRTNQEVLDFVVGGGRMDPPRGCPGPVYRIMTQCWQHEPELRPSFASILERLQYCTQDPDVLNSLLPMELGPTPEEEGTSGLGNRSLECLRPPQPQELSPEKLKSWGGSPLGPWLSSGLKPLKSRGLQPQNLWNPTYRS
Experiment: radiometric filter-binding kinase assay, Kinase HotSpot
Conditions: compound 0.5 µM; ATP 10 µM
metric.name: residual activity (%)
Answer in %, number only, no unit symbol.

Answered examples (10):
Name the reported residual activity value associated with the compound "Nc1ncnc2c1cnn2-c1ccccc1"
96.8

Same read-out for "O=S(=O)(NCCNC/C=C/c1ccc(Br)cc1)c1cccc2cnccc12" ?
94.7

Same question, "O=C(c1ccccc1)c1ccc(N2CCOCC2)cc1O" this time
107

Item: "CCc1nc(-c2ccc(OC)cc2)[nH]c1-c1ccncc1"
106

What would you report for "CC(C)(C)n1nc(Cc2cccc3ccccc23)c2c(N)ncnc21" ?
98.2

And what about the compound "CCCCc1c(-c2ccc(O)cc2)[nH]c2nccnc12" ?
84.1

How about "CN[C@@H]1C[C@H]2O[C@@](C)([C@@H]1OC)n1c3ccccc3c3c4c(c5c6ccccc6n2c5c31)C(=O)NC4" ?
0.543

Lookup "N/C(=N\N=C/c1ccc(-c2cccc([N+](=O)[O-])c2)o1)N[N+](=O)[O-]"
102

Next up: "CCOc1cc2ncnc(Nc3cccc(Br)c3)c2cc1OCC"
69.7

Now give it for "COc1cc2ncnc(Nc3ccc(O)c(Br)c3)c2cc1OC" too.
5.44

New cases:
Reported residual activity for "COc1cc2c(cc1OC)-c1[nH]nc(Nc3cccc(F)c3)c1C2" : what is it?
93.3

Now this one: "O=C1NC(=O)c2cc(Nc3ccc(F)cc3)c(Nc3ccc(F)cc3)cc21"
99.7

Try "N#C/C(=C1/Nc2ccccc2S1)c1ccnc(NCCc2cccnc2)n1" next.
83.1

Moving on to the next compound: "N#CCCc1ccc2c(c1)-c1[nH]c3ccc([N+](=O)[O-])cc3c1CC(=O)N2"
80

Next: "O=C(O)c1ccc2c3c1cccc3c(=O)n1c3ccccc3nc21"
72.7

What would you report for "N#Cc1c(NC(=O)c2cccc3ccccc23)sc2c1CCCC2" ?
102

Please do the same for "O=c1[nH]c2ccccc2n1C1CCN(Cc2ccc(-c3nc4cc5[nH]cnc5cc4nc3-c3ccccc3)cc2)CC1" as well.
95.6

From: the kinase profiling compilation of Christmann-Franck et al. (2016)
